Test target: CCAAT/enhancer-binding protein beta (Homo sapiens)
Assay comment: ATG_C_EBP_CIS: Attagene CIS-FACTORIAL HepG2 Assay for human CCAAT/Enhancer Binding Protein (C/EBP) beta (AID 2282927)
Protocol conditions: HepG2 Attagene cis-factorial transcription factor reporter; actives raise or lower the signal
The source made the active and inactive calls. The calls were made as follows: active = hit-call score of the fitted dose curve at least 0.9, where 1 is the maximum; inactive = score below 0.9.
Endpoint: AC50

{"Compound": "Cc1cc(C(C)(C)c2ccc(O)c(C)c2)ccc1O", "Test target": "CCAAT/enhancer-binding protein beta (Homo sapiens)", "AC50": "inactive"}
{"Compound": "CCOc1ccc(N)cc1", "Test target": "CCAAT/enhancer-binding protein beta (Homo sapiens)", "AC50": "inactive"}
{"Compound": "CC(C)[C@H](C(=O)OC(C#N)c1cccc(Oc2ccccc2)c1)c1ccc(OC(F)F)cc1 (stereo partly specified)", "Test target": "CCAAT/enhancer-binding protein beta (Homo sapiens)", "AC50": "inactive"}
{"Compound": "CS(=O)(=O)c1ccc(C(=O)C2C(=O)CCCC2=O)c(Cl)c1COCC(F)(F)F", "Test target": "CCAAT/enhancer-binding protein beta (Homo sapiens)", "AC50": "inactive"}

Look at this compound and give its reported AC50. CCCSP(=S)(OCC)Oc1ccc(Cl)cc1Cl (stereo unspecified) inactive

Fill blank: measured AC50 of the compound CCC(C)(C#N)N=NC(C)(C#N)CC (stereo unspecified) is ____. inactive

Give the measured AC50 of O=C(Nc1ccc(Br)cc1)c1cc(Br)cc(Br)c1O . inactive
